- STUDY TARGET: recombinant human cGAS (aa147-522) (Homo sapiens, UniProt Q8N884)
- Construct: recombinant human cGAS (aa147-522); His6-SUMO (cleaved yes); made in house; host or cells: E. coli BL21/pLys
- Sequence (Q8N884 147-522): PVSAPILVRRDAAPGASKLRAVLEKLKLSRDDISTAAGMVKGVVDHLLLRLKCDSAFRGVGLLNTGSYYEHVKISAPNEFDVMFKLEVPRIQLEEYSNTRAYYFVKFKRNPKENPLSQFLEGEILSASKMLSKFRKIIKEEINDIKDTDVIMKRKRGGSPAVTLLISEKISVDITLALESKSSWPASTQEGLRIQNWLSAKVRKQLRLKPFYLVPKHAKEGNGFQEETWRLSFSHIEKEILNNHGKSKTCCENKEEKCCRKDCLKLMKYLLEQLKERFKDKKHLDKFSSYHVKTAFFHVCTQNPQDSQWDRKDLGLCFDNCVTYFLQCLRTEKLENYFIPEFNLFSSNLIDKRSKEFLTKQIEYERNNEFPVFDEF
- PROTOCOL: In vitro inhibition assay of cGAS activity (ATP consumption, KinaseGlo Max)
- Assay type: biochemical
- CONDITION SUMMARY: Table 3, read-out: cGAS Inhibition Results IC50
pIC50: −log10 of the molar value.
Measured pIC50 of individual entries
TEST READOUT: pIC50

compound=O=C(OCC(F)(F)F)[C@@H]1[C@@H](O)CCN1c1cc(-n2ccnc2)c2ccc(Cl)c(Cl)c2n1 reported_value="> 5.70"
compound="O=C(O)CCOCC(CO)Nc1cc(-n2ccnc2)c2ccc(Cl)c(Cl)c2n1 (centres unmarked)" reported_value="> 5.70"
compound=O=C(O)CCOC[C@@H]1CCCN1c1cc(-n2ccnc2)c2cc(Cl)c(Cl)c(Cl)c2n1 reported_value="> 5.70"
compound=O=C(O)CCOC1CCN(c2cc(-n3ccnc3)c3ccc(Cl)c(Cl)c3n2)CC1 reported_value="> 5.70"
compound=O=C(O)[C@@H]1Cc2ccccc2N1c1cc(-n2ccnc2)c2ccc(Cl)c(Cl)c2n1 reported_value="4.52 to 5.70"
compound=COC(=O)C1=CCCN1c1cc(-n2ccnc2)c2ccc(Cl)c(Cl)c2n1 reported_value="4.52 to 5.70"
compound=O=C(O)CCOC[C@@H]1CCN1c1cc(-n2ccnc2)c2ccc(Cl)c(Cl)c2n1 reported_value="> 5.70"
compound=COc1cc(Cl)c2nc(N3CCC[C@H]3COCCC(=O)O)cc(-n3ccnc3)c2c1 reported_value="> 5.70"
compound=O=[PH](O)OC[C@@H]1CCCN1c1cc(-n2ccnc2)c2ccc(Cl)c(Cl)c2n1 reported_value="> 5.70"
compound=O[C@@H]1CN(c2cc(-n3ccnc3)c3ccc(Cl)c(Cl)c3n2)C[C@H]1O reported_value="> 5.70"
compound=CC(C)N(CCCOc1cccc(F)c1C(=O)O)c1cc(-n2ccnc2)c2ccc(Cl)c(Cl)c2n1 reported_value="4.52 to 5.70"
compound=O=C(C[C@@H]1CCCN1c1cc(-n2ccnc2)c2ccc(Cl)c(Cl)c2n1)N[C@@H](C(=O)O)c1ccccc1 reported_value="< 4.52"
compound=O=C(O)[C@@H]1CC(F)(F)CN1c1cc(-n2ccnc2)c2ccc(Cl)c(Cl)c2n1 reported_value="> 5.70"
compound=C[C@H]1CCN(c2cc(-n3ccnc3)c3ccc(Cl)c(Cl)c3n2)[C@@H]1COCCC(=O)O reported_value="> 5.70"
compound=O=C(O)c1cccc(S(=O)(=O)N[C@@H]2C[C@@H](C(=O)O)N(c3cc(-n4ccnc4)c4ccc(Cl)c(Cl)c4n3)C2)c1 reported_value="> 5.70"
compound=COC(=O)[C@@H]1C[C@@H](N)CN1c1cc(-n2ccnc2)c2ccc(Cl)c(Cl)c2n1 reported_value="4.52 to 5.70"
compound="O=C(O)CCOCC1CCCCN(c2cc(-n3ccnc3)c3ccc(Cl)c(Cl)c3n2)C1 (centres unmarked)" reported_value="> 5.70"

====

- STUDY TARGET: recombinant human cGAS (aa147-522) (Homo sapiens, UniProt Q8N884)
- Construct: recombinant human cGAS (aa147-522); His6-SUMO (cleaved yes); made in house; host or cells: E. coli BL21/pLys
- PROTOCOL: In vitro inhibition assay of cGAS activity (ATP consumption, KinaseGlo Max)
- Assay type: biochemical
- CONDITION SUMMARY: Table 2, read-out: cGAS Inhibition Results IC50
TEST READOUT: IC50

compound=Cc1cc(N(C)CC(N)=O)c2ccc(Cl)c(Cl)c2n1 reported_value="> 30000 nM"
compound=CS(=O)(=O)N1CCN(c2cc(-n3ccnc3)c3ccc(Cl)cc3n2)CC1 reported_value="> 30000 nM"
compound="O=C(O)C1CCCC(Nc2cc(-n3ccnc3)c3ccc(Cl)cc3n2)C1 (stereo not shown)" reported_value="2000 to 30000 nM"
compound=COc1ncc(-c2cc(-n3ccnc3)c3ccc(Cl)cc3n2)cc1C(=O)O reported_value="2000 to 30000 nM"
compound="NS(=O)(=O)C1CCCN(c2cc(-c3cn[nH]c3)c3ccc(Cl)c(Cl)c3n2)C1 (stereo not shown)" reported_value="< 2000 nM"
compound=CN(CC(N)=O)c1cc(-n2ccnc2)c2ccc(Cl)c(Cl)c2n1 reported_value="2000 to 30000 nM"
compound=O=C(O)CCNC(=O)[C@@H]1CN(c2cc(-c3cn[nH]c3)c3ccc(Cl)c(Cl)c3n2)CCO1 reported_value="< 2000 nM"
compound=Brc1ccc2nccc(-n3cccn3)c2c1 reported_value="> 30000 nM"
compound=Fc1ccc(Cc2cc(-n3ccnc3)c3ccc(Br)cc3n2)cc1 reported_value="> 30000 nM"
compound=CC(=O)N[C@@H]1C[C@@H](C(=O)O)N(c2cc(-n3ccnc3)c3ccc(Cl)c(Cl)c3n2)C1 reported_value="< 2000 nM"
compound=CN(CCC(N)=O)c1cc(-c2cn[nH]c2)c2ccc(Cl)c(Cl)c2n1 reported_value="< 2000 nM"
compound=O=C(O)CNC(=O)C[C@@H]1CCCN1c1cc(-c2cn[nH]c2)c2ccc(Cl)c(Cl)c2n1 reported_value="< 2000 nM"
compound=C[C@H](CO)N(C)c1cc(-n2ccnc2)c2ccc(Cl)c(Cl)c2n1 reported_value="< 2000 nM"
compound="O=S(=O)(NC1CCCN(c2cc(-n3ccnc3)c3ccc(Cl)cc3n2)C1)c1cccnc1 (stereo not shown)" reported_value="2000 to 30000 nM"
compound=CN(CCC(=O)NCC(=O)O)c1cc(-c2cn[nH]c2)c2ccc(Cl)c(Cl)c2n1 reported_value="< 2000 nM"
compound=CN(CCNS(=O)(=O)c1cncn1C)c1cc(-n2ccnc2)c2ccc(Cl)cc2n1 reported_value="2000 to 30000 nM"
compound=O=C1CN(c2cc(-n3ccnc3)c3ccc(Cl)c(Cl)c3n2)CCCN1 reported_value="< 2000 nM"
compound=O[C@H]1CCCN(c2cc(-n3ccnc3)c3ccc(Cl)c(Cl)c3n2)C1 reported_value="< 2000 nM"
compound=O=c1[nH]c(=O)c2ccc(S(=O)(=O)NC[C@@H]3CCCN3c3cc(-n4ccnc4)c4ccc(Cl)c(Cl)c4n3)cc2[nH]1 reported_value="2000 to 30000 nM"
compound="O=C1CN(c2cc(-n3ccnc3)c3ccc(Cl)cc3n2)CC(C(=O)O)N1 (stereo not shown)" reported_value="2000 to 30000 nM"
compound=O=C(O)CN(CCN1CCOCC1)c1cc(-n2ccnc2)c2ccc(Cl)c(Cl)c2n1 reported_value="2000 to 30000 nM"
compound=NS(=O)(=O)CCNc1cc(NCC(=O)O)nc2c(Cl)c(Cl)ccc12 reported_value="> 30000 nM"
compound="OCC1COCCN1c1cc(-n2ccnc2)c2ccc(Cl)c(Cl)c2n1 (stereo not shown)" reported_value="2000 to 30000 nM"
compound="N#CCCO[PH](=O)OCC1CCCN(c2cc(-c3cn[nH]c3)c3ccc(Cl)c(Cl)c3n2)C1 (stereo not shown)" reported_value="< 2000 nM"
compound=O=C(O)CCNc1cc(-n2ccnc2)c2ccc(Cl)cc2n1 reported_value="2000 to 30000 nM"
compound=Clc1cc2nc(-c3ccccc3)cc(-n3ccnc3)c2cc1Cl reported_value="< 2000 nM"
compound=CC(C)(C)c1cc(C(=O)O)cc(-c2cc(-n3ccnc3)c3ccc(Cl)cc3n2)c1 reported_value="> 30000 nM"
compound=COc1ccccc1-c1cc(-n2ccnc2)c2ccc(Br)cc2n1 reported_value="> 30000 nM"
compound=Oc1ccc(-c2cc(-c3ccccc3)nc3cc(Cl)ccc23)cn1 reported_value="> 30000 nM"
compound=Clc1ccc2c(-n3ccnc3)cc(Oc3ccccc3)nc2c1 reported_value="2000 to 30000 nM"
compound=O[C@H]1CCN(c2cc(-n3ccnc3)c3ccc(Cl)c(Cl)c3n2)C1 reported_value="< 2000 nM"
compound=COC(=O)C1CCN(c2cc(-n3ccnc3)c3ccc(Cl)cc3n2)CC1 reported_value="2000 to 30000 nM"
compound=OC[C@@H]1C[C@@H](O)CN1c1cc(-n2ccnc2)c2ccc(Cl)c(Cl)c2n1 reported_value="< 2000 nM"
compound=CC(C)[C@H](NC(=O)C[C@@H]1CCCN1c1cc(-n2ccnc2)c2ccc(Cl)c(Cl)c2n1)C(=O)O reported_value="< 2000 nM"
compound=NC[C@@H]1CCCN1c1cc(-n2ccnc2)c2ccc(Cl)c(Cl)c2n1 reported_value="2000 to 30000 nM"
compound="O=C1CN(c2cc(-n3ccnc3)c3ccc(Cl)c(Cl)c3n2)CC(C(=O)O)N1 (stereo not shown)" reported_value="> 30000 nM"
compound="CN(CCC(=O)N1CCCC(O)C1)c1cc(-c2cn[nH]c2)c2ccc(Cl)c(Cl)c2n1 (stereo not shown)" reported_value="< 2000 nM"

The origin of these recorded values is patent US11873291B2.
